Values were extracted from ChEMBL document CHEMBL4346659.

- Experimental System: Epidermal growth factor receptor (Homo sapiens, UniProt P00533)
- Sequence (P00533 whole entry): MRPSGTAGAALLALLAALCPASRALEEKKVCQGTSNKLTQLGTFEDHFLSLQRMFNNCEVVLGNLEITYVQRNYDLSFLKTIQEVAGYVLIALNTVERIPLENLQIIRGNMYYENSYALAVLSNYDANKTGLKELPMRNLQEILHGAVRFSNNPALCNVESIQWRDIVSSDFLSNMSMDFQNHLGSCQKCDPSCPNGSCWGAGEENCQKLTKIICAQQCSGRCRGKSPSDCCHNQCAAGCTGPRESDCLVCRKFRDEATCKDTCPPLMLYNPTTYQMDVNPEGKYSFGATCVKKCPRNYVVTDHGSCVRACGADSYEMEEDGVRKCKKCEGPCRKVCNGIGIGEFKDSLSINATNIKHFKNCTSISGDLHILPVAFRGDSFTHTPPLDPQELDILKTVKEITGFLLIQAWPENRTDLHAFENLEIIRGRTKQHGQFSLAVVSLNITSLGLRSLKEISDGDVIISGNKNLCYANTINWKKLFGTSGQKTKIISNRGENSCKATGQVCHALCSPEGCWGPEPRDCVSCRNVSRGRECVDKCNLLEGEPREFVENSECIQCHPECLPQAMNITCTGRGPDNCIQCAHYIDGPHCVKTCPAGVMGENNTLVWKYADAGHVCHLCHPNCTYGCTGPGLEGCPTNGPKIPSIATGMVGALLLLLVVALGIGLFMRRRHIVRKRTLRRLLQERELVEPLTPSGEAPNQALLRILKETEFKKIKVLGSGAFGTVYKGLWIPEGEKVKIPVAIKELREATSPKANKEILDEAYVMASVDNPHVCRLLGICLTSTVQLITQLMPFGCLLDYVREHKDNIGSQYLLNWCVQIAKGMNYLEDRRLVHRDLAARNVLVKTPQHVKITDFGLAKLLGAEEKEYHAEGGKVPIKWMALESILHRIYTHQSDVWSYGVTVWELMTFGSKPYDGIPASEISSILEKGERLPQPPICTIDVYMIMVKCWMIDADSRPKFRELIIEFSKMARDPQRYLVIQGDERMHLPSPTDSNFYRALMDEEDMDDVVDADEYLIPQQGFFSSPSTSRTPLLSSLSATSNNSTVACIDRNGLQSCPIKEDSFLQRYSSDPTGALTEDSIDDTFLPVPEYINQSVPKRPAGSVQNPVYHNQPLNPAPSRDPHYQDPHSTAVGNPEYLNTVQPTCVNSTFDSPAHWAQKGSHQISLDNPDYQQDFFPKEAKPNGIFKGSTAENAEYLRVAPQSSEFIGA
- Procedure Text: Inhibition of human recombinant EGFR using Ulight-CAGAGAIETDKEYYTVKD measured after 15 mins in the presence of ATP by LANCE method
pIC50: −log10 of the molar value.
Result Type: pIC50

[Q] I am curious: what pIC50 value has been reported for Nc1ncnc2c1c(-c1ccc(Oc3ccccc3)cc1)cn2C[C@H]1CCCN1C[C@@H]1CO1 ?
[A] < 6.00

###

- Experimental System: UniProt P07947
- Sequence (P07947 whole entry): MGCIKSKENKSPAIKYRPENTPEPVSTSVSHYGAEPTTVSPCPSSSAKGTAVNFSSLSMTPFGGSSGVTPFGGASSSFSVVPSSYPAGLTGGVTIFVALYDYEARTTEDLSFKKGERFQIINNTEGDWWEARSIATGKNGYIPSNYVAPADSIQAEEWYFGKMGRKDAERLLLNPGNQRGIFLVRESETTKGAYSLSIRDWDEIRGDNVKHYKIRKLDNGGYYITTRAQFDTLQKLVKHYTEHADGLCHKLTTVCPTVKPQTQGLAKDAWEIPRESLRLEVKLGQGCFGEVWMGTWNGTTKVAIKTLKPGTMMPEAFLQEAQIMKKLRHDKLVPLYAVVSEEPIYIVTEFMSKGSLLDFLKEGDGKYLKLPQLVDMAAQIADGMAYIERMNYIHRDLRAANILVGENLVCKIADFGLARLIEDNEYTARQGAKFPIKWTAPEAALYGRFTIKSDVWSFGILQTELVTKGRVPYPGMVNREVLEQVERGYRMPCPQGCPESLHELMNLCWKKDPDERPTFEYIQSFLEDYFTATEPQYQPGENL
- Procedure Text: Inhibition of human recombinant YES using biotinyl-beta amyloid beta amyloid beta AYQAEENTYDEYEN as substrate measured after 30 mins in the presence of ATP by HTRF assay
Result Type: pIC50
Quick note: pIC50 values are minus log10 of concentrations in mol/L.

[Q] I am curious: what pIC50 value has been reported for Nc1ncnc2c1c(-c1ccc(Oc3ccccc3)cc1)cn2C[C@H]1CCCN1C[C@@H]1CO1 ?
[A] 7.07

###

Item-by-item account of IC50
- Experimental System: Tyrosine-protein kinase BTK (Homo sapiens)
Unit nM implied. Number only.

[Q] Request body: readout IC50, system Tyrosine-protein kinase BTK (Homo sapiens), query Nc1ncnc2c1c(-c1ccc3c(c1)OCO3)cn2C[C@@H]1CCN(C[C@@H]2CO2)C1 . Return the value.
[A] 123

[Q] Request body: readout IC50, system Tyrosine-protein kinase BTK (Homo sapiens), query Nc1ncnc2c1c(-c1ccc(Oc3ccccc3)cc1)cn2[C@H]1CCN(C[C@@H]2CO2)C1 . Return the value.
[A] 31.1

[Q] Request body: readout IC50, system Tyrosine-protein kinase BTK (Homo sapiens), query Nc1ncnc2c1c(-c1ccc(Oc3ccccc3)cc1)cn2C[C@H]1CCCN1C[C@@H]1CO1 . Return the value.
[A] 3

[Q] Request body: readout IC50, system Tyrosine-protein kinase BTK (Homo sapiens), query Nc1ncnc2c1c(-c1ccc(Oc3ccccc3)cc1)cn2[C@H]1CCN(C[C@H]2CO2)C1 . Return the value.
[A] 89.4

[Q] Request body: readout IC50, system Tyrosine-protein kinase BTK (Homo sapiens), query Nc1ncnc2c1c(-c1ccc3c(c1)OCO3)cn2C[C@H]1CCCN1C[C@@H]1CO1 . Return the value.
[A] 8.9

###

Item-by-item account of inhibition
- Experimental System: Tyrosine-protein kinase BTK (Homo sapiens)
- Procedure Text: Inhibition of BTK (unknown origin) at 0.1 uM in the presence of ATP by caliper mobility shift assay relative to control
Unit % implied. Number only.

Use these answered entries as a reference point.
Nc1ncnc2c1c(-c1ccc3c(c1)OCO3)cn2[C@H]1CCN(C(=O)c2ccccc2)C1 37.1
Nc1ncnc2c1c(-c1ccc3c(c1)OCO3)cn2[C@H]1CCN(C(=O)c2ccccn2)C1 1.45
CC1(CN2CC[C@H](n3cc(-c4ccc5c(c4)OCO5)c4c(N)ncnc43)C2)COC1 13.9
Nc1ncnc2c1c(-c1ccc3c(c1)OCO3)cn2[C@H]1CCN(CC2CC2)C1 0.04

Okay, next one:
[Q] Request body: readout inhibition, system Tyrosine-protein kinase BTK (Homo sapiens), query Nc1ncnc2c1c(-c1ccc3c(c1)OCO3)cn2C[C@@H]1CCN(C[C@@H]2CO2)C1 . Return the value.
[A] 48.3

###

- Experimental System: Tyrosine-protein kinase BTK (Homo sapiens)
- Procedure Text: Inhibition of BTK (unknown origin) at 1 uM in the presence of ATP by caliper mobility shift assay relative to control
Result Type: inhibition

C[C@@H]1C[C@H](n2cc(-c3ccc4c(c3)OCO4)c3c(N)ncnc32)CN1C[C@@H]1CO1 47.1%
Nc1ncnc2c1c(-c1ccc3c(c1)OCO3)cn2C[C@@H]1CCCN(C[C@@H]2CO2)C1 49.2%
Nc1ncnc2c1c(-c1ccc3c(c1)OCO3)cn2[C@H]1CCN(CCCO)C1 22.4%
Nc1ncnc2c1c(-c1ccc3c(c1)OCO3)cn2C1CCN(C2COC2)CC1 45.7%
Nc1ncnc2c1c(-c1cnc3[nH]ccc3c1)cn2C[C@H]1CCCN1C[C@@H]1CO1 26.9%

Okay, next one:
[Q] I am curious: what inhibition value has been reported for Nc1ncnc2c1c(-c1cc3ccccc3o1)cn2[C@H]1CCN(C[C@@H]2CO2)C1 ?
[A] 59.1%

###

- Experimental System: Tyrosine-protein kinase BTK (Homo sapiens)
- Procedure Text: Inhibition of BTK (unknown origin) at 1 uM in the presence of ATP by caliper mobility shift assay relative to control
Would you please tag the item Criterion met when its inhibition is 40% or above, and Criterion not met when it is below?

Compound	Group
Nc1ncnc2c1c(-c1ccc3c(c1)OCO3)cn2[C@H]1CCN(CC2CO2)C1 (stereo not given in full)	Criterion met
Nc1ncnc2c1c(-c1ccc3c(c1)OCO3)cn2CC1CCCO1 (stereo not given)	Criterion not met
CCOC(=O)C(C)N1CC[C@H](n2cc(-c3ccc4c(c3)OCO4)c3c(N)ncnc32)C1 (stereo not given in full)	Criterion met

[Q] Threshold query (inhibition >= 40%) on Nc1ncnc2c1c(-c1ccc3c(c1)OCO3)cn2C[C@H]1CCN(C[C@@H]2CO2)C1
[A] Criterion met

[Q] Threshold query (inhibition >= 40%) on Nc1ncnc2c1c(-c1ccc3c(c1)OCO3)cn2C1CCN(C[C@@H]2CO2)CC1
[A] Criterion met

###

Item-by-item account of pIC50
- Tested on: JeKo-1
- Procedure Text: Antiproliferative activity against human JeKo1 cells
- Assay type: functional, cell-based
- Settings: Homo sapiens, JeKo-1
Quick note: pIC50 values are minus log10 of concentrations in mol/L.

Use these answered entries as a reference point.
Compound	Result Type	Result
Nc1ncnc2c1c(-c1ccc3c(c1)OCO3)cn2[C@H]1CCN(S(=O)(=O)C2CC2)C1	pIC50	4.93
Nc1ncnc2c1c(-c1ccc3c(c1)OCO3)nn2C[C@H]1CCCN1C[C@@H]1CO1	pIC50	4.36
C=CC(=O)N1CCC[C@@H](n2nc(-c3ccc(Oc4ccccc4)cc3)c3c(N)ncnc32)C1 [IBRUTINIB]	pIC50	5.98

Okay, next one:
[Q] I am curious: what pIC50 value has been reported for CCOC(=O)C(C)N1CC[C@H](n2cc(-c3ccc4c(c3)OCO4)c3c(N)ncnc32)C1 (some centres undefined) ?
[A] 5.92

###

- Experimental System: Tyrosine-protein kinase BTK (Homo sapiens, UniProt Q06187)
- Sequence (Q06187 whole entry): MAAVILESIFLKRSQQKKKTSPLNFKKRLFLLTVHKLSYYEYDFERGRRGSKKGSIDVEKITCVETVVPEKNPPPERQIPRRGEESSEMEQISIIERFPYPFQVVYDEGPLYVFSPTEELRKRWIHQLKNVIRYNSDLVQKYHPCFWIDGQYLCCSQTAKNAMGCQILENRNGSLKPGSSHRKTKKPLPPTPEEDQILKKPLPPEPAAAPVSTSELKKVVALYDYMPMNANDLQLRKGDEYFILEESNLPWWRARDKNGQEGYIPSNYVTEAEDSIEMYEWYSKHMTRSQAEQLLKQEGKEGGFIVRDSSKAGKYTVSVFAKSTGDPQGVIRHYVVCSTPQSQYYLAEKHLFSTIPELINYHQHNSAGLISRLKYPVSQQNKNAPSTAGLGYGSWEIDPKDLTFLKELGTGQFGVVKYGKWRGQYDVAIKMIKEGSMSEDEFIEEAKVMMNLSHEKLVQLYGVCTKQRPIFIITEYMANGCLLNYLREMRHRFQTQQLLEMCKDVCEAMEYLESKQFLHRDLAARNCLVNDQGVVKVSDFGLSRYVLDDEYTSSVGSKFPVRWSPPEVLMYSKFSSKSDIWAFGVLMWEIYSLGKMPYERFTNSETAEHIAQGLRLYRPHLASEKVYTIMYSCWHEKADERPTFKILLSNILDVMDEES
- Procedure Text: Inhibition of BTK (unknown origin) at 1 uM in the presence of ATP by caliper mobility shift assay relative to control
Would you please tag the item rule met when its inhibition is 40% or above, and rule not met when it is below?

Worked examples follow.
Nc1ncnc2c1c(-c1ccc3c(c1)OCO3)nn2C[C@H]1CCCN1C[C@@H]1CO1 rule met
Nc1ncnc2c1c(-c1ccc3c(c1)OCO3)cn2[C@@H]1CCN(C[C@H]2CO2)C1 rule met
Nc1ncnc2c1c(-c1ccc3c(c1)OCO3)cn2[C@H]1CCN(S(=O)(=O)C2CC2)C1 rule not met
CC(C)(C)c1ccc(C(=O)Nc2ccc(-c3cn([C@H]4CCN(C[C@@H]5CO5)C4)c4ncnc(N)c34)cc2)cc1 rule met

Please examine the following record next.
[Q] Threshold query (inhibition >= 40%) on Nc1ncnc2c1c(-c1ccc3c(c1)OCO3)cn2[C@H]1CCN(C[C@H]2CO2)C1
[A] rule met

###

- Experimental System: Tyrosine-protein kinase Blk (Homo sapiens)
- Sequence (P51451 whole entry): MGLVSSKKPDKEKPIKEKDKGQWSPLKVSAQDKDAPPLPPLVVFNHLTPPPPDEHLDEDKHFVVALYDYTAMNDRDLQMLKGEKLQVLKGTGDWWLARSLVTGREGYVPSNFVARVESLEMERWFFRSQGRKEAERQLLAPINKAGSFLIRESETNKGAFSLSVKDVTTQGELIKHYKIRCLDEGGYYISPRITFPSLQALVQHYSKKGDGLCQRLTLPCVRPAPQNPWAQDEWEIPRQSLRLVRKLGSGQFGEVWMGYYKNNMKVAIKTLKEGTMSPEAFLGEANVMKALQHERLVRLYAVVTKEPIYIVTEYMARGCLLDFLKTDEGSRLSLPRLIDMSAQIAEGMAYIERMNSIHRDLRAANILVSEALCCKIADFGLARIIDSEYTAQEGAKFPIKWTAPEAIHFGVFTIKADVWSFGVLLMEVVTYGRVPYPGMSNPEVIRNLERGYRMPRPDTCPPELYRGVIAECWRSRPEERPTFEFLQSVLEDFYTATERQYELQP
Result Type: pIC50
Quick note: pIC50 values are minus log10 of concentrations in mol/L.

[Q] I am curious: what pIC50 value has been reported for Nc1ncnc2c1c(-c1ccc(Oc3ccccc3)cc1)cn2C[C@H]1CCCN1C[C@@H]1CO1 ?
[A] 8.00

###

- Tested on: Ramos
- Procedure Text: Antiproliferative activity against human Ramos cells
- Assay type: functional, cell-based
- Settings: Homo sapiens, Ramos
Item-by-item account of log10(IC50)
Please interpret these as log10 of IC50 where IC50 is in µM.

Use these answered entries as a reference point.
CC(C)(C)c1ccc(C(=O)Nc2cccc(-c3cn([C@H]4CCN(C[C@@H]5CO5)C4)c4ncnc(N)c34)c2)cc1 0.68
Nc1ncnc2c1c(-c1ccc3c(c1)OCO3)nn2C[C@H]1CCCN1C[C@@H]1CO1 1.68
Nc1ncnc2c1c(-c1ccc3c(c1)OCO3)cn2[C@H]1CCN(C[C@H]2CO2)C1 0.70
Nc1ncnc2c1c(-c1ccc(Oc3ccccc3)cc1)cn2C[C@H]1CCCN1C[C@@H]1CO1 0.93
Nc1ncnc2c1c(-c1ccc3c(c1)OCO3)cn2C1CCN(C[C@@H]2CO2)CC1 1.52

[Q] I am curious: what log10(IC50) value has been reported for Nc1ncnc2c1c(-c1ccc3c(c1)OCO3)cn2[C@H]1CCN(S(=O)(=O)C2CC2)C1 ?
[A] 0.89

[Q] I am curious: what log10(IC50) value has been reported for CC(C)(C)c1ccc(CN2CC[C@H](n3cc(-c4ccc5c(c4)OCO5)c4c(N)ncnc43)C2)cc1 ?
[A] 0.64

###

- Tested on: JeKo-1
- Procedure Text: Antiproliferative activity against human JeKo1 cells
- Type: functional, cell-based
- Settings: Homo sapiens, JeKo-1
Result Type: IC50 (µM)
Unit µM implied. Number only.

Compound	Result Type	U	Result
Nc1ncnc2c1c(-c1cc3ccccc3o1)cn2[C@H]1CCN(C[C@H]2CO2)C1	IC50	µM	0.63
Nc1ncnc2c1c(-c1ccc3c(c1)OCO3)cn2CC1CCCO1 (centres undefined)	IC50	µM	17.1
C[C@@H]1C[C@H](n2cc(-c3ccc4c(c3)OCO4)c3c(N)ncnc32)CN1C[C@@H]1CO1	IC50	µM	4.61
Nc1ncnc2c1c(-c1ccc3c(c1)OCO3)cn2C[C@@H]1CCCN1C[C@@H]1CO1	IC50	µM	21.6
Nc1ncnc2c1c(-c1ccc(Oc3ccccc3)cc1)cn2C[C@H]1CCCN1C(CO)CO	IC50	µM	14.5

Okay, next one:
[Q] I am curious: what IC50 value has been reported for CC1(C(=O)N2CC[C@H](n3cc(-c4ccc5c(c4)OCO5)c4c(N)ncnc43)C2)COC1 ?
[A] 36.4
